assay: Inhibition of full length HCV 1b Con1 NS3/4A protease using HiLyte Fluor 610 peptide substrate by biochemical FRET assay; design: species or system Hepatitis C virus (isolate Con1)
MEASUREMENT TYPE: IC50 (nM)

>>> reported_measurement("COc1ccc2c(OCC[C@@H]3NC(=O)N(C)CCCC/C=C\\[C@@H]4C[C@@]4(C(=O)NS(=O)(=O)C4(C)CC4)NC3=O)cc(-c3csc(NC(C)C)n3)nc2c1")
1.2
>>> reported_measurement("COc1ccc2c(OCC[C@@H]3NC(=O)N(C)CCCC/C=C\\[C@@H]4C[C@@]4(C(=O)NS(=O)(=O)C4(C)CC4)NC3=O)cc(-c3nc(C(C)C)cs3)nc2c1Br")
0.6
>>> reported_measurement("COc1ccc2c(OCC[C@@H]3NC(=O)N(C)CCCC/C=C\\[C@@H]4C[C@@]4(C(=O)NS(=O)(=O)C4CC4)NC3=O)cc(-c3nc(C(C)C)cs3)nc2c1F")
9.6
>>> reported_measurement("COc1ccc2c(O[C@@H]3C[C@H]4C(=O)N[C@]5(C(=O)O)C[C@H]5/C=C\\CCCCC[C@H](NC(=O)OC5CCCC5)C(=O)N4C3)cc(-c3csc(NC(C)C)n3)nc2c1")
0.9
>>> reported_measurement("COc1ccc2c(OCC[C@@H]3NC(=O)N(C)CCCC/C=C\\[C@@H]4C[C@@]4(C(=O)NS(=O)(=O)N(C)C)NC3=O)cc(-c3nc(C(C)C)cs3)nc2c1Cl")
2.1
>>> reported_measurement("CCC1(S(=O)(=O)NC(=O)[C@@]23C[C@H]2/C=C\\CCCCN(C)C(=O)N[C@@H](CCOc2cc(-c4nc(C(C)C)cs4)nc4c(Cl)c(OC)ccc24)C(=O)N3)CC1")
3.3
